- assay: Stability of compounds in human blood plasma
- Type: in vitro ADME
Square brackets hold non-standard residues; d marks the D form. Peptide text beside a SMILES is read from it. * marks the point of attachment. ξ: configuration not given here. Tic = O=C(O)[C@@H]1Cc2ccccc2CN1; Cha = N[C@@H](CC1CCCCC1)C(=O)O; NMe(benzyl) = CN(Cc1ccccc1)*; ξDisc = O=C(O)C1NCc2ccccc21; Nle = CCCC[C@H](N)C(=O)O; X2 = OCCOCCN(Cc1ccccc1)*
endpoint: Stability (Arbitrary units) Human 6 h
The reply should be a number in Arbitrary units, with the unit left off.

get_value(item= CSCC[C@H](NC(=O)[C@@H]1Cc2ccccc2CN1C(=O)[C@H](CCCNC(=N)N)NC(=O)[C@H](CC1CCCCC1)NC(C)=O)C(=O)N(CCOCCO)Cc1ccccc1 [Compound P99, Ac-Cha-Arg-Tic-Met-N(Bn)CH2CH2OCH2CH2OH] (Ac-[Cha]R[Tic]M-X2) , readout=Stability (Arbitrary units) Human 6 h) returns 104

get_value(item= CCCC[C@H](NC(=O)C1c2ccccc2CN1C(=O)[C@H](CCCNC(=N)N)NC(=O)[C@H](CC1CCCCC1)NC(C)=O)C(=O)N(C)Cc1ccccc1 (stereo partly drawn) [Compound P72-1, Ac-Cha-Arg-Disc-Nle-N(Me)Bn] (Ac-[Cha]R[ξDisc][Nle]-{NMe(benzyl)}) , readout=Stability (Arbitrary units) Human 6 h) returns 99
